# measurementTarget: UniProtKB Q00724
# assayName: Single administration test in mice, plasma RBP4 by ELISA
# Format: in vivo
# measurementContext: male C57BL/6J or ICR mice, 50 mg/kg oral single dose, 4 hr after administration, mean±SD
Readings of RBP4 (% of initial/Control) 4 hr for the listed molecules

q: Tell me reported RBP4 (% of initial/Control) 4 hr for CC(C)(C)c1cc(Cl)ccc1N1CCN(C(=O)C(=O)O)CC1 [Example 180] , tested with UniProtKB Q00724.
a: 63.0 ± 2.0 % of initial/Control

Let's switch to this molecule now.
q: Tell me reported RBP4 (% of initial/Control) 4 hr for CC(C)(C)c1cc(Cl)ccc1N1CCN(C(=O)c2ccc(OCC(=O)O)cn2)CC1 [Example 210] , tested with UniProtKB Q00724.
a: 55.3 ± 4.0 % of initial/Control

* * *

# measurementTarget: human RBP4 (Homo sapiens (Human), UniProt P02753)
# assayName: Binding assay by Retinol-RBP4-TTR ELISA
# measurementContext: retinol 50 nM, His-tagged human RBP4, biotinylated human TTR; read-out: human RBP4 binding inhibitory activity (IC50 nM)
Readings of log10 IC50 for the listed compounds
Reminder: these figures are log10 of reported IC50, in nM before transformation.

As a guide, the following entries are already answered.
q: Using the record for CC(C)(C)c1ccccc1N1CCN(C(=O)C23CC4CC(CC(C(=O)O)(C4)C2)C3)CC1 , report its log10 IC50.
a: 1.98

q: Using the record for CC(C)(C)c1ccccc1N1CCN(C(=O)c2ccc(C(=O)O)cc2)CC1 , report its log10 IC50.
a: 2.68

q: Using the record for CC(C)(C)c1ccccc1N1CCN(C(=O)c2ccc(OCC3CCNCC3)cc2)CC1 , report its log10 IC50.
a: 2.40

q: Using the record for CC(C)(C)c1ccccc1N1CCN(C(=O)Nc2ccccc2)CC1 , report its log10 IC50.
a: 1.76

New cases:
q: Using the record for CC(C)(C)c1ccccc1N1CCN(C(=O)Cc2nnn[nH]2)CC1 , report its log10 IC50.
a: 2.48

q: Using the record for CC(C)(C)c1ccccc1N1CCN(C(=O)C2(C(=O)O)CC2)CC1 , report its log10 IC50.
a: 2.18

q: Using the record for CC(C)(C)c1ccccc1N1CCN(C(=O)C(=O)O)CC1 , report its log10 IC50.
a: 1.58

* * *

Readings of RBP4 (% of initial/Control) 7 hr for the listed compounds
# measurementTarget: UniProt Q00724
# assayName: Single administration test in mice, plasma RBP4 by ELISA
# Type: in vivo
# measurementContext: male C57BL/6J or ICR mice, 50 mg/kg oral single dose, 7 hr after administration, mean±SD

As a guide, the following entries are already answered.
q: Tell me reported RBP4 (% of initial/Control) 7 hr for CC(C)(C)c1ccccc1N1CCN(C(=O)CCC(=O)O)CC1 [Example 53] , tested with UniProt Q00724.
a: 30.2 ± 1.3 % of initial/Control

q: Tell me reported RBP4 (% of initial/Control) 7 hr for CC(C)(C)c1cc(Cl)ccc1N1CCN(C(=O)C(=O)O)CC1 [Example 180] , tested with UniProt Q00724.
a: 61.0 ± 2.2 % of initial/Control

q: Tell me reported RBP4 (% of initial/Control) 7 hr for CC(C)(C)c1ccccc1N1CCN(C(=O)c2ncoc2CCC(=O)O)CC1 [Example 178] , tested with UniProt Q00724.
a: 67.0 ± 2.6 % of initial/Control

New cases:
q: Tell me reported RBP4 (% of initial/Control) 7 hr for CC(C)(C)c1cc(Br)ccc1N1CCN(C(=O)C(=O)O)CC1 [Example 67] , tested with UniProt Q00724.
a: 40.3 ± 1.6 % of initial/Control

q: Tell me reported RBP4 (% of initial/Control) 7 hr for CC(C)(C)c1ccccc1N1CCN(C(=O)C(=O)N2CCC(C(=O)O)CC2)CC1 [Example 89] , tested with UniProt Q00724.
a: 46.6 ± 4.3 % of initial/Control

Data credit: patent US8853215B2
